Test system: Staphylococcus haemolyticus 105
assay comment: Broth micro-dilution MIC, SH 105
Format: cell-based
recorded conditions: unit assumed
measured endpoint: MIC, SH105 (µg/mL)
Number only, in µg/mL; omit the unit.

See these solved cases before continuing.
>>> experimental_value("CNC(CC(C)C)C(=O)NC1C(=O)NC(CC(N)=O)C(=O)NC2C(=O)NC3C(=O)NC(C(=O)NC(C(=O)NCCCc4ccccc4)c4cc(O)cc(O)c4-c4cc3ccc4O)C(OC3CC(C)(N)C(O)C(C)O3)c3ccc(c(Cl)c3)Oc3cc2cc(c3OC2OC(CO)C(O)C(O)C2OC2CC(C)(N)C(O)C(C)O2)Oc2ccc(cc2Cl)C1O (stereo not drawn) [Example 20, A82846B, (3-phenyl-n-propyl) amide]")
0.125
>>> experimental_value("CNC(CC(C)C)C(=O)NC1C(=O)NC(CC(N)=O)C(=O)NC2C(=O)NC3C(=O)NC(C(=O)NC(C(=O)NCc4ccccc4)c4cc(O)cc(O)c4-c4cc3ccc4O)C(OC3CC(C)(N)C(O)C(C)O3)c3ccc(c(Cl)c3)Oc3cc2cc(c3OC2OC(CO)C(O)C(O)C2OC2CC(C)(NCc3ccc(-c4ccccc4)cc3)C(O)C(C)O2)Oc2ccc(cc2Cl)C1O (stereo not drawn)")
0.5

Hi! What's the reported MIC, SH105 for CNC(CC(C)C)C(=O)NC1C(=O)NC(CC(N)=O)C(=O)NC2C(=O)NC3C(=O)NC(C(=O)NC(C(=O)NCCc4ccccc4)c4cc(O)cc(O)c4-c4cc3ccc4O)C(OC3CC(C)(N)C(O)C(C)O3)c3ccc(c(Cl)c3)Oc3cc2cc(c3OC2OC(CO)C(O)C(O)C2OC2CC(C)(NCc3ccc(-c4ccccc4)cc3)C(O)C(C)O2)Oc2ccc(cc2Cl)C1O.Cl (stereo not drawn) on Staphylococcus haemolyticus 105? 2

Hi! What's the reported MIC, SH105 for CNC(CC(C)C)C(=O)NC1C(=O)NC(CC(N)=O)C(=O)NC2C(=O)NC3C(=O)NC(C(=O)NC(C(=O)NCCC(c4ccccc4)c4ccccc4)c4cc(O)cc(O)c4-c4cc3ccc4O)C(OC3CC(C)(N)C(O)C(C)O3)c3ccc(c(Cl)c3)Oc3cc2cc(c3OC2OC(CO)C(O)C(O)C2OC2CC(C)(NCc3ccc(-c4ccccc4)cc3)C(O)C(C)O2)Oc2ccc(cc2Cl)C1O (stereo not drawn) on Staphylococcus haemolyticus 105? 8

Hi! What's the reported MIC, SH105 for CNC(CC(C)C)C(=O)NC1C(=O)NC(CC(N)=O)C(=O)NC2C(=O)NC3C(=O)NC(C(=O)NC(C(=O)NCCCOC)c4cc(O)cc(O)c4-c4cc3ccc4O)C(OC3CC(C)(N)C(O)C(C)O3)c3ccc(c(Cl)c3)Oc3cc2cc(c3OC2OC(CO)C(O)C(O)C2OC2CC(C)(NCc3ccc(-c4ccccc4)cc3)C(O)C(C)O2)Oc2ccc(cc2Cl)C1O (stereo not drawn) on Staphylococcus haemolyticus 105? 2

---

Test system: Staphylococcus haemolyticus 415
assay comment: Broth micro-dilution MIC, SH 415
Format: cell-based
recorded conditions: unit assumed
measured endpoint: MIC, SH415

>>> experimental_value("CNC(CC(C)C)C(=O)NC1C(=O)NC(CC(N)=O)C(=O)NC2C(=O)NC3C(=O)NC(C(=O)NC(C(=O)NCCCN(C)C)c4cc(O)cc(O)c4-c4cc3ccc4O)C(OC3CC(C)(N)C(O)C(C)O3)c3ccc(c(Cl)c3)Oc3cc2cc(c3OC2OC(CO)C(O)C(O)C2OC2CC(C)(N)C(O)C(C)O2)Oc2ccc(cc2Cl)C1O.O=C(O)C(F)(F)F (stereo not drawn) [Example 23]")
"≤ 0.06 µg/mL"
>>> experimental_value("CNC(CC(C)C)C(=O)NC1C(=O)NC(CC(N)=O)C(=O)NC2C(=O)NC3C(=O)NC(C(=O)NC(C(=O)NCc4ccccc4)c4cc(O)cc(O)c4-c4cc3ccc4O)C(OC3CC(C)(N)C(O)C(C)O3)c3ccc(c(Cl)c3)Oc3cc2cc(c3OC2OC(CO)C(O)C(O)C2OC2CC(C)(N)C(O)C(C)O2)Oc2ccc(cc2Cl)C1O.O=C(O)C(F)(F)F (stereo not drawn) [Example 24]")
"≤ 0.06 µg/mL"

// next item, MIC, SH415 requested
Reported MIC, SH415 for CNC(CC(C)C)C(=O)NC1C(=O)NC(CC(N)=O)C(=O)NC2C(=O)NC3C(=O)NC(C(=O)NC(C(=O)NCCc4ccccc4)c4cc(O)cc(O)c4-c4cc3ccc4O)C(OC3CC(C)(N)C(O)C(C)O3)c3ccc(c(Cl)c3)Oc3cc2cc(c3OC2OC(CO)C(O)C(O)C2OC2CC(C)(NCc3ccc(-c4ccccc4)cc3)C(O)C(C)O2)Oc2ccc(cc2Cl)C1O.Cl (stereo not drawn) [Example 18] : what is it? 2 µg/mL

---

Entries and their measured Minimum Inhibitory Concentrations (MICs), Mean Values of 4-6 Isolates, Sensitive follow.
System: Enterococcus, Sensitive (4-6 isolates)
assay comment: Enterococcus screen, broth micro-dilution MIC, sensitive isolates
Format: cell-based
Design: unit not given here
recorded conditions: mean of 4-6 isolates

Reported Minimum Inhibitory Concentrations (MICs), Mean Values of 4-6 Isolates, Sensitive for CNC(CC(C)C)C(=O)NC1C(=O)NC(CC(N)=O)C(=O)NC2C(=O)NC3C(=O)NC(C(=O)NC(C(=O)NCCc4ccccc4)c4cc(O)cc(O)c4-c4cc3ccc4O)C(OC3CC(C)(N)C(O)C(C)O3)c3ccc(c(Cl)c3)Oc3cc2cc(c3OC2OC(CO)C(O)C(O)C2OC2CC(C)(NCc3ccc(-c4ccccc4)cc3)C(O)C(C)O2)Oc2ccc(cc2Cl)C1O (centres unmarked) : what is it? 0.25

Reported Minimum Inhibitory Concentrations (MICs), Mean Values of 4-6 Isolates, Sensitive for CCCCc1ccc(CNC2(C)CC(OC3C(Oc4c5cc6cc4Oc4ccc(cc4Cl)C(OC4CC(C)(N)C(O)C(C)O4)C4NC(=O)C(NC(=O)C6NC(=O)C(CC(N)=O)NC(=O)C(NC(=O)C(CC(C)C)NC)C(O)c6ccc(c(Cl)c6)O5)c5ccc(O)c(c5)-c5c(O)cc(O)cc5C(C(=O)NCCc5ccccc5)NC4=O)OC(CO)C(O)C3O)OC(C)C2O)cc1.O=C(O)C(F)(F)F (centres unmarked) : what is it? 0.22

---

Tested on: Staphylococcus haemolyticus 105
assay comment: Broth micro-dilution MIC, SH 105
Assay type: cell-based
recorded conditions: unit assumed
Entries and their measured MIC, SH105 follow.
Number only, in µg/mL; omit the unit.

>>> experimental_value("CNC(CC(C)C)C(=O)NC1C(=O)NC(CC(N)=O)C(=O)NC2C(=O)NC3C(=O)NC(C(=O)NC(C(=O)NCCCN(C)C)c4cc(O)cc(O)c4-c4cc3ccc4O)C(OC3CC(C)(N)C(O)C(C)O3)c3ccc(c(Cl)c3)Oc3cc2cc(c3OC2OC(CO)C(O)C(O)C2OC2CC(C)(NCc3ccc(-c4ccccc4)cc3)C(O)C(C)O2)Oc2ccc(cc2Cl)C1O (stereo not drawn)")
0.5
>>> experimental_value("CNC(CC(C)C)C(=O)NC1C(=O)NC(CC(N)=O)C(=O)NC2C(=O)NC3C(=O)NC(C(=O)NC(C(=O)NCc4ccc(OC)cc4)c4cc(O)cc(O)c4-c4cc3ccc4O)C(OC3CC(C)(N)C(O)C(C)O3)c3ccc(c(Cl)c3)Oc3cc2cc(c3OC2OC(CO)C(O)C(O)C2OC2CC(C)(NCc3ccc(-c4ccccc4)cc3)C(O)C(C)O2)Oc2ccc(cc2Cl)C1O.O=C(O)C(F)(F)F (stereo not drawn)")
1

Reported MIC, SH105 for CNC(CC(C)C)C(=O)NC1C(=O)NC(CC(N)=O)C(=O)NC2C(=O)NC3C(=O)NC(C(=O)NC(C(=O)NCCc4ccccc4)c4cc(O)cc(O)c4-c4cc3ccc4O)C(OC3CC(C)(N)C(O)C(C)O3)c3ccc(c(Cl)c3)Oc3cc2cc(c3OC2OC(CO)C(O)C(O)C2OC2CC(C)(NCc3ccc(-c4ccc(C)cc4)cc3)C(O)C(C)O2)Oc2ccc(cc2Cl)C1O (stereo not drawn) : what is it? 2

---

Tested on: Staphylococcus haemolyticus 105
assay comment: Broth micro-dilution MIC, SH 105
Type: cell-based
recorded conditions: unit assumed
Entries and their measured MIC, SH105 follow.
Number only, in mg/L; omit the unit.

Reported MIC, SH105 for CNC(CC(C)C)C(=O)NC1C(=O)NC(CC(N)=O)C(=O)NC2C(=O)NC3C(=O)NC(C(=O)NC(C(=O)NCc4ccccc4)c4cc(O)cc(O)c4-c4cc3ccc4O)C(OC3CC(C)(N)C(O)C(C)O3)c3ccc(c(Cl)c3)Oc3cc2cc(c3OC2OC(CO)C(O)C(O)C2OC2CC(C)(NCc3ccc(-c4ccccc4)cc3)C(O)C(C)O2)Oc2ccc(cc2Cl)C1O.Cl (stereo not shown) [Example 11] : what is it? 1

Reported MIC, SH105 for CCCCc1ccc(CNC2(C)CC(OC3C(Oc4c5cc6cc4Oc4ccc(cc4Cl)C(OC4CC(C)(N)C(O)C(C)O4)C4NC(=O)C(NC(=O)C6NC(=O)C(CC(N)=O)NC(=O)C(NC(=O)C(CC(C)C)NC)C(O)c6ccc(c(Cl)c6)O5)c5ccc(O)c(c5)-c5c(O)cc(O)cc5C(C(=O)NCCc5ccccc5)NC4=O)OC(CO)C(O)C3O)OC(C)C2O)cc1.O=C(O)C(F)(F)F (stereo not shown) [Example 15] : what is it? 1

Data provenance is patent US5919756A.
